The origin of these recorded values is ChEMBL document CHEMBL1143406.

- assay.protocol: AUC (24 hrs) in HIV-negative human at 600 mg, po administered every 24 hrs coadministered with 300 mg of atazanavir every 12 hrs
- Assay type: ADME, organism-based
- Design: dose 600 mg, time < 24 hr, route oral
- condition.description: plasma
Give AUC at 24 h for every item shown.
Give bare numbers, in ng·h/mL.

CO[C@H]1/C=C/O[C@@]2(C)Oc3c(C)c(O)c4c(O)c(c(/C=N/N5CCN(C)CC5)c(O)c4c3C2=O)NC(=O)/C(C)=C\C=C\[C@H](C)[C@H](O)[C@@H](C)[C@@H](O)[C@@H](C)[C@H](OC(C)=O)[C@@H]1C 45700

For the next question, use this compound.
What the record says about CO[C@H]1/C=C/O[C@@]2(C)Oc3c(C)c(O)c4c(O)c(c(/C=N/N5CCN(C)CC5)c(O)c4c3C2=O)NC(=O)/C(C)=C\C=C\[C@H](C)[C@H](O)[C@@H](C)[C@@H](O)[C@@H](C)[C@H](O)[C@@H]1C : AUC at 24 h is 8300

###

- assay.protocol: Apparent oral clearance in HIV-negative human serum at 300 mg, po administered every 12 hrs coadministered with 600 mg of rifampin every 24 hrs
- Assay type: ADME, organism-based
observation.type: CL/F (mL/min)
Numbers only, in mL/min.

What the record says about COC(=O)N[C@H](C(=O)N[C@@H](Cc1ccccc1)[C@@H](O)CN(Cc1ccc(-c2ccccn2)cc1)NC(=O)[C@@H](NC(=O)OC)C(C)(C)C)C(C)(C)C [ATAZANAVIR] : CL/F is 1390
